pIC50: −log10 of the molar value.
Compiled from multiple publications: pIC50 readings for Glutamate receptor ionotropic, NMDA 1 (Rattus norvegicus).
# cutoff 6 applies to pIC50; >= gives 1.0, < gives 0.0

In: Is pIC50 for COC(=O)CC1c2ccccc2NC(=O)C1[N+](=O)[O-] (configuration not stated) at or above 6?
Out: 0.0

In: Is pIC50 for CN(C(=O)c1ccccc1)c1c(C(=O)O)[nH]c2cc(Cl)cc(Cl)c12 at or above 6?
Out: 1.0

In: Is pIC50 for Oc1ccc(-c2c(O)nc3cc(Cl)cc(Cl)c3c2O)cc1 at or above 6?
Out: 1.0

In: Is pIC50 for O=C(Nc1c(C(=O)O)[nH]c2cc(Cl)ccc12)c1ccccc1 at or above 6?
Out: 0.0

In: Is pIC50 for O=C(CC1c2ccc(Cl)cc2NC(=O)C1[N+](=O)[O-])NCc1ccccc1 (configuration not stated) at or above 6?
Out: 0.0

In: Is pIC50 for COc1cc(C(=O)O)nc2ccccc12 at or above 6?
Out: 0.0

In: Is pIC50 for O=C(CC1c2ccc(Cl)cc2NC(=O)C1[N+](=O)[O-])Nc1ccccc1 (configuration not stated) at or above 6?
Out: 0.0

---

Compiled from multiple publications: IC50 readings for Glutamate receptor ionotropic, NMDA 1 (Rattus norvegicus).
Rule: measured IC50 below 100 nM gets YES; anything equal to or greater than 100 nM gets NO.

In: Would you kindly verify if IC50 of O=c1cc(O)c2ccccc2[nH]c1=O is strictly less than 100 nM?
Out: NO

In: Would you kindly verify if IC50 of O=C(O)c1cc(O)c2c(Cl)cc(Cl)cc2n1 is strictly less than 100 nM?
Out: NO

In: Would you kindly verify if IC50 of CC1Cc2[nH]c(=O)c(=O)cc(O)c2CC1C (stereo unspecified) is strictly less than 100 nM?
Out: NO

In: Would you kindly verify if IC50 of COC(=O)CC1c2ccc(Cl)cc2NC(=O)C1C(=O)c1ccccc1 (stereo unspecified) is strictly less than 100 nM?
Out: NO

In: Would you kindly verify if IC50 of O=c1cc(O)c2ccc(Cl)cc2[nH]c1=O is strictly less than 100 nM?
Out: YES

In: Would you kindly verify if IC50 of O=C(O)CN(C(=O)c1ccccc1)c1c(C(=O)O)[nH]c2cc(Cl)cc(Cl)c12 is strictly less than 100 nM?
Out: NO

In: Would you kindly verify if IC50 of O=C(Nc1c(C(=O)O)[nH]c2cc(Cl)cc(Cl)c12)c1ccccc1 is strictly less than 100 nM?
Out: NO

In: Would you kindly verify if IC50 of Cc1ccc2c(O)c(-c3cccc(Oc4ccccc4)c3)c(=O)[nH]c2c1 is strictly less than 100 nM?
Out: YES

In: Would you kindly verify if IC50 of NC(Cc1c(O)noc1-c1ccccc1)C(=O)O (racemic) is strictly less than 100 nM?
Out: NO

In: Would you kindly verify if IC50 of COC(=O)Cc1c(C(=O)OC)c(O)nc2cc(Cl)ccc12 is strictly less than 100 nM?
Out: NO

---

Compiled from multiple publications: pIC50 readings for Glutamate receptor ionotropic, NMDA 1 (Rattus norvegicus).
Quick note: pIC50 means taking -log10 of the concentration in moles per liter.

In: Report pIC50 for Cc1noc(CC2c3ccc(Cl)cc3NC(=O)C2[N+](=O)[O-])n1 (stereo unspecified) tested on Glutamate receptor ionotropic, NMDA 1 (Rattus norvegicus).
Out: 5.25

In: Report pIC50 for O=C(O)c1cc(O)c2c(I)cc(Cl)cc2n1 tested on Glutamate receptor ionotropic, NMDA 1 (Rattus norvegicus).
Out: 7.49

In: Report pIC50 for O=C1Nc2cc(Cl)ccc2CC1[N+](=O)[O-] (stereo unspecified) tested on Glutamate receptor ionotropic, NMDA 1 (Rattus norvegicus).
Out: 6.38

In: Report pIC50 for O=c1cc(O)c2c([nH]c1=O)CC(Cl)C(Cl)C2 (stereo unspecified) tested on Glutamate receptor ionotropic, NMDA 1 (Rattus norvegicus).
Out: 6.88

In: Report pIC50 for COC(=O)CC1c2ccc(Cl)cc2NC(=O)C1[N+](=O)[O-] (stereo unspecified) tested on Glutamate receptor ionotropic, NMDA 1 (Rattus norvegicus).
Out: 5.88

In: Report pIC50 for CCOC(=O)CC1c2ccc(Cl)cc2NC(=O)C1[N+](=O)[O-] (stereo unspecified) tested on Glutamate receptor ionotropic, NMDA 1 (Rattus norvegicus).
Out: 5.65
